B1: TNXB (parent)
chain: LLQRELMVPGTRHSAVLRDLRSGT

- Variants of: B1
- test: protein stability index of a GFP-peptide fusion (GPS, HEK-293T) (PSI 1-6); higher = more stable;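 note: lentivirally expressed fusions sorted by FACS into six bins by GFP to DsRed ratio, PSI derived from sequencing read proportions per bin multiplied by bin number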
- testContext: c terminus: a fixed tail appended
In this section, each of the variants is paired with its reported protein stability index.
measureName: protein stability index

[[record]]
variantannotation = "P9F"
experimentalvalue = 1.79

[[record]]
variantannotation = "S22Y"
experimentalvalue = 2.18

[[record]]
variantannotation = "S22P"
experimentalvalue = 2.43

[[record]]
variantannotation = "L1A"
experimentalvalue = 2.85

[[record]]
variantannotation = "P9K"
experimentalvalue = 2.21

[[record]]
variantannotation = "L2H"
experimentalvalue = 3.43

[[record]]
variantannotation = "H13N"
experimentalvalue = 2.58

[[record]]
variantannotation = "L6H"
experimentalvalue = 3.18

[[record]]
variantannotation = "L2R"
experimentalvalue = 3.92

[[record]]
variantannotation = "S14A"
experimentalvalue = 2.2

[[record]]
variantannotation = "Q3K"
experimentalvalue = 2.7

[[record]]
variantannotation = "A15K"
experimentalvalue = 2.82

[[record]]
variantannotation = "D19M"
experimentalvalue = 2.39

[[record]]
variantannotation = "E5A"
experimentalvalue = 1.81

[[record]]
variantannotation = "L2K"
experimentalvalue = 3.33

[[record]]
variantannotation = "S22W"
experimentalvalue = 1.71

